Origin of measurements: paper PMC8456368

# Target Desc: GST-MKK3 and full-length VF-MYC interaction (Homo sapiens)
# Sequence (P46734 1-347): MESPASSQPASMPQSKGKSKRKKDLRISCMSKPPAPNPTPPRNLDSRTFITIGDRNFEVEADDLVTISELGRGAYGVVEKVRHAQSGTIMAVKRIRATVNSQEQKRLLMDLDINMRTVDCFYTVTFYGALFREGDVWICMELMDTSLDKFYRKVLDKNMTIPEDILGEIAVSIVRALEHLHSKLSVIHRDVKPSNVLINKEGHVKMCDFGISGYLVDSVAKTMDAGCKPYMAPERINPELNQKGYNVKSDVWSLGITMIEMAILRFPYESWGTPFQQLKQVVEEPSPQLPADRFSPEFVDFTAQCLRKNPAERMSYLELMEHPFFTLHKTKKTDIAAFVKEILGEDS
# Assay Details: dose-response cell lysate-based TR-FRET assay

[
  {
    "Smiles Record": "Cc1cc(Nc2ccc(NC(=O)c3ccc(Nc4ccnc5ccccc45)cc3)cc2)nc(N)n1",
    "IC50, µM": 8
  }
]
